- study-system: human VDR (Homo sapiens, UniProt P11473)
- Sequence (P11473 1-427): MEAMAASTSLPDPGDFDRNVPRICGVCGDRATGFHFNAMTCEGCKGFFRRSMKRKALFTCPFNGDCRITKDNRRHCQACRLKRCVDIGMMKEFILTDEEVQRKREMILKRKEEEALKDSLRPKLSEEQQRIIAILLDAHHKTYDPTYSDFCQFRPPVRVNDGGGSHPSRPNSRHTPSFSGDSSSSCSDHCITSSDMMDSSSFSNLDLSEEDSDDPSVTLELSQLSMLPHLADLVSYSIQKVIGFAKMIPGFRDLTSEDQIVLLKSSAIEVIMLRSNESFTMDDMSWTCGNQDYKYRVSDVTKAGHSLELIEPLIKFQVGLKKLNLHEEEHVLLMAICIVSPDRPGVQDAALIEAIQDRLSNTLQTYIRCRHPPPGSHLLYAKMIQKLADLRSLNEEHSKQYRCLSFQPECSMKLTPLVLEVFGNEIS
- assay: Transient transactivation assay (CYP24-Luc), antagonist mode with 3 nM 1,25D3, HEK293T cells
- Type: cell-based
- settings: Derived IC 50 (Transient transactivation assay)
pIC50: −log10 of the molar value.
observable: pIC50

# molecule, observable, value-reported
data = [
    ("O=C(O)CCCc1ccc(N(CCCl)CCCl)cc1 [Chlorambucil, reference compound]", "pIC50", 7.68),
]

###

- study-system: human VDR (Homo sapiens)
- Sequence (P11473 1-427): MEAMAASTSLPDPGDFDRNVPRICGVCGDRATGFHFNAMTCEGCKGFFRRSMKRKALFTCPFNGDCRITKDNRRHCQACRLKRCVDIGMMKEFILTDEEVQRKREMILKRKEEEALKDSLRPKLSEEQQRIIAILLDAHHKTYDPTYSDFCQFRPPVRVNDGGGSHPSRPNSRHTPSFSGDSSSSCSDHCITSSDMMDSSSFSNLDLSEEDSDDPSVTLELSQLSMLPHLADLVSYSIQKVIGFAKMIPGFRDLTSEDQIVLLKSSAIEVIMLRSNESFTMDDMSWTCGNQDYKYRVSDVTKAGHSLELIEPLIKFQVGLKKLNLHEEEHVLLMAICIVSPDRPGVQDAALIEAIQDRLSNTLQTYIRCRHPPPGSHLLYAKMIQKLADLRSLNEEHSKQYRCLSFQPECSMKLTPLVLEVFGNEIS
// returns Not satisfied unless Derived Efficacy (fold induction) is strictly below 20 fold induction, in which case Satisfied

# compound, label-value
measured = [
    ("Cc1cc(Cc2cc(C)cc(C(C)(C)C)c2O)c(O)c(C(C)(C)C)c1", "Not satisfied"),
    ("O=S(=O)(O)c1ccccc1C=Cc1ccc(-c2ccc(C=Cc3ccccc3S(=O)(=O)O)cc2)cc1.[Na].[Na]", "Satisfied"),
    ("O=C(NC(=O)c1c(F)cccc1F)Nc1ccc(OC(F)(F)C(F)OC(F)(F)F)c(Cl)c1 (stereo not shown)", "Satisfied"),
    ("CN1CCC(Nc2ncc3ncnc(Nc4ccc(F)c(Cl)c4)c3n2)CC1.Cl.Cl [Falnidamol dihydrochloride]", "Satisfied"),
    ("Cc1cccc2c1cc1ccc3cccc4ccc2c1c34", "Satisfied"),
    ("Cl.Nc1c2ccccc2nc2ccccc12 [9 Aminoacridine monohydrochloride]", "Not satisfied"),
]

###

- study-system: human VDR (Homo sapiens, UniProt P11473)
- Sequence (P11473 1-427): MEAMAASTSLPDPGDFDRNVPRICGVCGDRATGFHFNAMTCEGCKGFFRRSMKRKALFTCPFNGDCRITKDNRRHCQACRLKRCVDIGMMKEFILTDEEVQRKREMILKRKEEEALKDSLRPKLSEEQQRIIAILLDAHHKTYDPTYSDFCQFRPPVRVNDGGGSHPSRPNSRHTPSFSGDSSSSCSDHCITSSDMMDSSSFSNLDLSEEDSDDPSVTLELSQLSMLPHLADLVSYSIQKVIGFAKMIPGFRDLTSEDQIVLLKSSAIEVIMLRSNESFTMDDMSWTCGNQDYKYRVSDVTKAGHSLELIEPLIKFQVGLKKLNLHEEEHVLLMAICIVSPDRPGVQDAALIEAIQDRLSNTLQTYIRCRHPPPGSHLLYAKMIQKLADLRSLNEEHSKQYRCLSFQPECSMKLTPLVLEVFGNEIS
- assay: Transient transactivation assay (CYP24-Luc), agonist mode, HEK293T cells
- settings: top asymptote of Hill or Gain-Loss model, maximum response
observable: Derived Efficacy (fold induction)

# compound, study-system, value-reported
measured = [
    ("Nc1nc(N)c2nc(CNc3ccc(C(=O)N[C@@H](CCC(=O)O)C(=O)O)cc3)cnc2n1 [reference compound]", "human VDR (Homo sapiens, UniProt P11473)", 16.3718),
    ("Cc1cc(=O)oc2cc(N(C)C)ccc12", "human VDR (Homo sapiens, UniProt P11473)", 17.3255),
    ("Nc1nc(N)c2nc(-c3ccccc3)c(N)nc2n1 [Triamterene, reference compound]", "human VDR (Homo sapiens, UniProt P11473)", 14.7020),
    ("O=S(=O)(O)c1ccccc1", "human VDR (Homo sapiens, UniProt P11473)", 13.6777),
    ("O=S(=O)(O)c1ccc2ccc(S(=O)(=O)O)cc2c1", "human VDR (Homo sapiens, UniProt P11473)", 14.1669),
    ("CCc1cc(Cc2cc(CC)cc(C(C)(C)C)c2O)c(O)c(C(C)(C)C)c1", "human VDR (Homo sapiens, UniProt P11473)", 89.3748),
]
